# credit: patent US20240043504A1

Below, each of the binders is paired with its reported Kd value.
Target: SARS-COV-2 RBD extracellular domain expressed with a C-terminal mouse IgG2a (SARS-CoV-2)
Experiment: SPR Biacore, mAb captured via anti-hFc, 25 C
observed.property: Kd (nM)

1. mAb11008 (antibody, V domains shown) VH: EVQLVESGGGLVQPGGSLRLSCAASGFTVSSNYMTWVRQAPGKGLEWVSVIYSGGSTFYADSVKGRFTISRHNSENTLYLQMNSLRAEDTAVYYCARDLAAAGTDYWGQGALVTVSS VL: DIQLTQSPSFLSASVGDRVTITCWASQGISSYLAWYQQKPGKAPKLLIYAASTLQSGVPSRFSGSGSGTEFTLTISSLQPDDFATYYCQHLNSYLYTFGQGTKLEIKR
0.492
2. mAb10938 (antibody, V domains shown) VH: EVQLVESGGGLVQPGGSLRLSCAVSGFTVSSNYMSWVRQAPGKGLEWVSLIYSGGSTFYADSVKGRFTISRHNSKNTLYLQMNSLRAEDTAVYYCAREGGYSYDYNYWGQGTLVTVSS VL: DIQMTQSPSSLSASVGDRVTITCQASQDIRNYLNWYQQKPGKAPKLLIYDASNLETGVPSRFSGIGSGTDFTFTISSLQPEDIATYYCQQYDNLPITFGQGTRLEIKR
0.0702
3. mAb10985 (antibody, V domains shown) VH: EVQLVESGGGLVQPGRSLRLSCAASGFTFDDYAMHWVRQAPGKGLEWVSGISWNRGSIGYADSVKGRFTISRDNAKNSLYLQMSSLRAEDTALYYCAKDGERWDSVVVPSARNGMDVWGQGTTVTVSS VL: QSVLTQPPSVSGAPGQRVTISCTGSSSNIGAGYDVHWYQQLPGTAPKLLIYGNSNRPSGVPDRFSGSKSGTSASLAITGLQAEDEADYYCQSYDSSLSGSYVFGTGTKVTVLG
0.0105
4. mAb10954 (antibody, V domains shown) VH: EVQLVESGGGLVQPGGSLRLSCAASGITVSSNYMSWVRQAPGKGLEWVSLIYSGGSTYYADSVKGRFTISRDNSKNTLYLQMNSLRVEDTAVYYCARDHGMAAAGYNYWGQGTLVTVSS VL: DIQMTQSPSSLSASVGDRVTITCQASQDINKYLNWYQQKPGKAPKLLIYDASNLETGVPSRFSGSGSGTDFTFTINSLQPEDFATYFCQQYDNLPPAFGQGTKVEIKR
0.0203
